Attribution: the supplement of paper PMC10307832

Below, each of the compounds is paired with its reported relative viability value.
test system: NCI-H1993; assay: relative viability (nuclei count vs DMSO), 5 days (fraction); higher = more cells survive; conditions: first compound 0.8 µM
Respond using a number only.

Below, each entry is followed by its recorded relative viability result.
[[record]]
compound = "O=c1cc(-c2cccc3c2Sc2ccccc2S3)oc(N2CCOCC2)c1 + Nc1ncn([C@H]2C[C@H](O)[C@@H](CO)O2)c(=O)n1 [Decitabine] (partner 2 µM)"
experimental_endpoint = "relative viability"
assay_result = 0.467

[[record]]
compound = "COc1nc(C)cnc1NS(=O)(=O)c1cccnc1-c1ccc(-c2nnco2)cc1 [Zibotentan] + Cc1nc(NC(=O)N2CCC[C@H]2C(N)=O)sc1-c1ccnc(C(C)(C)C(F)(F)F)c1 [Alpelisib] (partner 2 µM)"
experimental_endpoint = "relative viability"
assay_result = 0.652


May I ask what relative viability has been recorded for O=c1cc(-c2cccc3c2Sc2ccccc2S3)oc(N2CCOCC2)c1 + CCNC(=O)c1noc(-c2cc(C(C)C)c(O)cc2O)c1-c1ccc(CN2CCOCC2)cc1 [Luminespib] (partner 0.01 µM) ? 0.778

Which measured relative viability value corresponds to O=c1cc(-c2cccc3c2Sc2ccccc2S3)oc(N2CCOCC2)c1 + CC(C)C[C@H](NC(=O)[C@H](Cc1ccccc1)NC(=O)c1cnccn1)B(O)O [Bortezomib] (partner 0.002 µM) ? 0.972

Can you share its relative viability? I mean this compound: O=c1cc(-c2cccc3c2Sc2ccccc2S3)oc(N2CCOCC2)c1 + C[C@@H](Oc1cc(-c2cnn(C3CCNCC3)c2)cnc1N)c1c(Cl)ccc(F)c1Cl [Crizotinib] (partner 1 µM) 0.89

Requested read-out: relative viability. Entry: COc1nc(C)cnc1NS(=O)(=O)c1cccnc1-c1ccc(-c2nnco2)cc1 [Zibotentan] + Cc1cc(Nc2cc(N3CCN(C)CC3)nc(Sc3ccc(NC(=O)C4CC4)cc3)n2)n[nH]1 [Tozasertib] (partner 0.1 µM) 0.592

Look up relative viability: COc1nc(C)cnc1NS(=O)(=O)c1cccnc1-c1ccc(-c2nnco2)cc1 [Zibotentan] + C[C@@H](Oc1cc(-c2cnn(C3CCNCC3)c2)cnc1N)c1c(Cl)ccc(F)c1Cl [Crizotinib] (partner 1 µM) 0.73

Need relative viability, item O=c1cc(-c2cccc3c2Sc2ccccc2S3)oc(N2CCOCC2)c1 + CC1(C)CCC(c2ccc(Cl)cc2)=C(CN2CCN(c3ccc(C(=O)NS(=O)(=O)c4ccc(N[C@H](CCN5CCOCC5)CSc5ccccc5)c(S(=O)(=O)C(F)(F)F)c4)cc3)CC2)C1 [Navitoclax] (partner 0.5 µM) 0.768

Reported relative viability for COc1nc(C)cnc1NS(=O)(=O)c1cccnc1-c1ccc(-c2nnco2)cc1 [Zibotentan] + NC(=O)Nc1cc(-c2cccc(F)c2)sc1C(=O)N[C@H]1CCCNC1 [AZD7762] (partner 0.2 µM) : what is it? 0.728
